- ASSAY TARGET: T1, huNav1.7α + β1-β2-β3 (human Nav1.7α co-expressed with human Navβ1, Navβ2 and Navβ3 on cells) (human)
- T1 construct: also called huNav1.7-beta1-beta2-beta3; CHO FlpIn huNav1.7α + β1-β2-β3
- ASSAY PROCEDURE: binding FACS, CHO FlpIn cells
REPORTED PROPERTY: Bmax (%)

{"BINDER": "F010301844 (VHH, also called F0103387G04(L11V, A12V, K33R, R39Q, S50Y, S56D, R76N, T83R, V89L, N93R)) VHH: EVQLVESGGGVVQPGGSLRLSCAASGPVFNINRMAWYRQAPGKQRELVAYVTPTGDISYTDSVKGRFTISRDGSKNWSLQMNSLRPEDTALYYCRALLQPDSYSNTRTYWGQGTLVTVSS", "TEST RESULT": 100}
{"BINDER": "F010301841 (VHH, also called F0103387G04(L11V, A12V, K33R, R39Q, S50Y, S56D, T83R, V89L, N93R)) VHH: EVQLVESGGGVVQPGGSLRLSCAASGPVFNINRMAWYRQAPGKQRELVAYVTPTGDISYTDSVKGRFTISRDGSKRWSLQMNSLRPEDTALYYCRALLQPDSYSNTRTYWGQGTLVTVSS", "TEST RESULT": 100}
{"BINDER": "F010302386 (VHH, also called F0103387G04(L11V, A12V, K33R, R39Q, S50Y, S56D, T60A, D72Q, W78V, S79Y, T83R, V89L, N93R, D99S, N100cI)) VHH: EVQLVESGGGVVQPGGSLRLSCAASGPVFNINRMAWYRQAPGKQRELVAYVTPTGDISYADSVKGRFTISRQGSKRVYLQMNSLRPEDTALYYCRALLQPSSYSITRTYWGQGTLVTVSS", "TEST RESULT": 100}
